Data origin: patent US11167006B2

# System: acute pain caused by photothermal therapy in male mice of Kunming strain
# Assay details: Mouse photothermal tail flick analgesia experiment
# Format: in vivo
# Measurement setup: lateral ventricle injection
Square brackets hold non-standard residues; d marks the D form. Peptide text beside a SMILES is read from it. NMeY = CN[C@@H](Cc1ccc(O)cc1)C(=O)O; NMeF = CN[C@@H](Cc1ccccc1)C(=O)O
# Lookup of reported ED50 value (nmol) (95% confidence interval), analgesic activity keyed by entry
Quantity name: ED50 value (nmol) (95% confidence interval), analgesic activity

- Molecule: "C[C@@H](NC(=O)[C@@H](N)Cc1ccc(O)cc1)C(=O)NCC(=O)N[C@@H](Cc1ccccc1)C(=O)N[C@H](C)C(=O)N1CCC[C@H]1C(=O)N[C@@H](CCC(N)=O)C(=O)N[C@@H](CCCNC(=N)N)C(=O)N[C@@H](Cc1ccccc1)C(N)=O [Compound 8] (H-Y[dA]GF[dA]PQRF-NH2)"
  Reading: "0.3361 (0.2864 to 0.3944) nmol"
- Molecule: "CSCC[C@@H](NC(=O)[C@H](Cc1ccccc1)NC(=O)CNC(=O)[C@@H](C)NC(=O)[C@@H](N)Cc1ccc(O)cc1)C(=O)N1CCC[C@H]1C(=O)N[C@@H](CCC(N)=O)C(=O)N[C@@H](CCCNC(=N)N)C(=O)N[C@@H](Cc1ccccc1)C(N)=O [Compound 6] (H-Y[dA]GF[dM]PQRF-NH2)"
  Reading: "0.3986 (0.3716 to 0.4275) nmol"
- Molecule: "CC(C)C[C@H](NC(=O)[C@H](Cc1ccccc1)NC(=O)CNC(=O)[C@@H](C)NC(=O)[C@@H](N)Cc1ccc(O)cc1)C(=O)N1CCC[C@H]1C(=O)N[C@@H](CCC(N)=O)C(=O)N[C@@H](CCCNC(=N)N)C(=O)N[C@@H](Cc1ccccc1)C(N)=O [Compound 4] (H-Y[dA]GFLPQRF-NH2)"
  Reading: "0.1865 (0.1509 to 0.2304) nmol"
- Molecule: "CSCC[C@H](NC(=O)[C@H](Cc1ccccc1)NC(=O)CNC(=O)[C@@H](C)NC(=O)[C@@H](N)Cc1ccc(O)cc1)C(=O)N1CCC[C@H]1C(=O)N[C@@H](CCC(N)=O)C(=O)N[C@@H](CCCNC(=N)N)C(=O)N[C@@H](Cc1ccccc1)C(N)=O [Compound 5] (H-Y[dA]GFMPQRF-NH2)"
  Reading: "0.2957 (0.2637 to 0.3338) nmol"
- Molecule: "C[C@@H](NC(=O)[C@@H](N)Cc1ccc(O)cc1)C(=O)NCC(=O)N[C@@H](Cc1ccccc1)C(=O)NCC(=O)N1CCC[C@H]1C(=O)N[C@@H](CCC(N)=O)C(=O)N[C@@H](CCCNC(=N)N)C(=O)N[C@@H](Cc1ccccc1)C(N)=O [Compound 3] (H-Y[dA]GFGPQRF-NH2)"
  Reading: "0.4172 (0.3798 to 0.4583) nmol"
- Molecule: "C[C@@H](NC(=O)[C@@H](N)Cc1ccc(O)cc1)C(=O)NCC(=O)N(C)[C@@H](Cc1ccccc1)C(=O)N[C@@H](CCC(N)=O)C(=O)N1CCC[C@H]1C(=O)N[C@@H](CCC(N)=O)C(=O)N[C@@H](CCCNC(=N)N)C(=O)N[C@@H](Cc1ccccc1)C(N)=O [Compound 2] (H-Y[dA]G[NMeF]QPQRF-NH2)"
  Reading: "0.3862 (0.3590 to 0.4154) nmol"
- Molecule: "CN[C@@H](Cc1ccc(O)cc1)C(=O)N[C@H](C)C(=O)NCC(=O)N[C@@H](Cc1ccccc1)C(=O)N[C@@H](CCC(N)=O)C(=O)N1CCC[C@H]1C(=O)N[C@@H](CCC(N)=O)C(=O)N[C@@H](CCCNC(=N)N)C(=O)N[C@@H](Cc1ccccc1)C(N)=O [Compound 1] (H-[NMeY][dA]GFQPQRF-NH2)"
  Reading: "1.2980 (1.2000 to 1.4050) nmol"
- Molecule: "CC(C)C[C@@H](NC(=O)[C@H](Cc1ccccc1)NC(=O)CNC(=O)[C@@H](C)NC(=O)[C@@H](N)Cc1ccc(O)cc1)C(=O)N1CCC[C@H]1C(=O)N[C@@H](CCC(N)=O)C(=O)N[C@@H](CCCNC(=N)N)C(=O)N[C@@H](Cc1ccccc1)C(N)=O [Compound 7] (H-Y[dA]GF[dL]PQRF-NH2)"
  Reading: "0.4367 (0.3865 to 0.4934) nmol"
- Molecule: "C[C@@H](NC(=O)[C@@H](N)Cc1ccc(O)cc1)C(=O)NCC(=O)N(C)[C@@H](Cc1ccccc1)C(=O)NCC(=O)N1CCC[C@H]1C(=O)N[C@@H](CCC(N)=O)C(=O)N[C@@H](CCCNC(=N)N)C(=O)N[C@@H](Cc1ccccc1)C(N)=O [Compound 9] (H-Y[dA]G[NMeF]GPQRF-NH2)"
  Reading: "0.0163 (0.0145 to 0.0182) nmol"
